test system: E. coli TESEC Mtb Asd; assay: growth (OD600 after 10 h); higher = more growth (less inhibition); conditions: arabinose induction (level): Low; compound 0.1 mM; raw OD600 reference: median of DMSO wells 0.417, cell-free background 0.041
Where a name gives a salt, the structure may show the parent alone.
Listed next: entries and their corresponding growth.
The answer should be a number; do not append a unit.

Answered examples (7):
| Molecule | growth |
| --- | --- |
| CN(C)CCN(Cc1ccccc1)c1ccccn1 [Tripelennamine hydrochloride] | 0.329 |
| N#CC(c1ccc(Cl)cc1)c1c(Cl)cc(-n2ncc(=O)[nH]c2=O)cc1Cl (stereo not drawn) | 0.0482 |
| CN(C)CCOC1=Cc2ccccc2Sc2ccc(Cl)cc21 [Zotepine] | 0.127 |
| CCOC(=O)OC(C)OC(=O)[C@@H]1N2C(=O)[C@@H](NC(=O)[C@H](N)c3ccccc3)[C@H]2SC1(C)C (stereo partly drawn) [Bacampicillin hydrochloride] | 0.325 |
| CCn1cc(C(=O)O)c(=O)c2cnc(N3CCCC3)nc21 | 0.432 |
| CC(C)(C)NC(=O)[C@H]1CC[C@H]2[C@@H]3CC[C@H]4NC(=O)C=C[C@]4(C)[C@H]3CC[C@]12C [Finasteride] | 0.268 |
| COc1cc(C(=O)NCc2ccc(OCCN(C)C)cc2)cc(OC)c1OC [Trimethobenzamide hydrochloride] | 0.385 |

Now for the molecule whose growth we want.
Ask: Which growth is reported for this molecule? CCN1CCCC1CNC(=O)c1cc(S(N)(=O)=O)ccc1OC (stereo not drawn) [Sulpiride]
Result: 0.423

Reference source: the supplement of paper PMC9262897
